- experimentalProtocol: qHTS drug screen for cell cycle checkpoint inhibitors in PARPi-resistant BRCA-mutant ovarian cancer cell lines. (AID 1963452)
- conditionNotes: PEO1/OlaR viability, CellTiter-Glo luminescence, 96 h; stronger effect = lower value
endpoint: Z-AUC
API note: the answer field is a bare number with no unit suffix.

# example entries with known answers
CN(C)CC[C@H](CSc1ccccc1)Nc1ccc(S(=O)(=O)NC(=O)c2ccc(N3CCN(Cc4ccccc4-c4ccc(Cl)cc4)CC3)cc2)cc1[N+](=O)[O-]: -0.74
CN1N=C(N)c2cn([C@@H]3O[C@H](COP(=O)(O)O)[C@@H](O)[C@@H]3O)c3ncnc1c23: -0.375
CC(=O)NCCC(=O)N[C@@H](CCC(N)=O)C(=O)N[C@@H](CO)C(=O)N[C@@H](CCC(N)=O)C(=O)N[C@@H](CCC(N)=O)C(=O)N[C@H](C(=O)N[C@@H](Cc1ccccc1)C(=O)N[C@]1(C)CCCCCCC=CCCC[C@@](C)(C(=O)N[C@@H](CCC(N)=O)C(=O)N[C@@H](CC(N)=O)C(N)=O)NC(=O)[C@H](CC(C)C)NC(=O)[C@H](CC(C)C)NC(=O)[C@@H](CCCNC(=N)N)NC(=O)[C@H](Cc2c[nH]c3ccccc23)NC(=O)[C@H](CC(C)C)NC(=O)[C@H](CC(N)=O)NC1=O)[C@H](C)O: -0.975
NS(=O)(=O)c1cc(Cl)c(Cl)c(S(N)(=O)=O)c1: 0.54
NC(=O)c1noc([C@H](CCCC2CCCCC2)CC(=O)NO)n1: 1.33

The compound `CCCCC[C@H](O)C=C[C@H]1[C@H](O)CC(=O)[C@H]1CC=CCCCC(=O)O` showed Z-AUC equal to 1.09

----------
- System: CRL-7250
- experimentalProtocol: Cytotoxic Profiling of Annotated Libraries Using Quantitative High-Throughput Screening (AID 1296008); also: % is scaled to controls: 0 for no effect and ±100 for the full control effect; nearly all actives have a fitted effect of over 60% in size
- conditionNotes: Five cell lines viability, CellTiter-Glo ATP luminescence, 48-72 h; stronger effect = lower value
Results filed as inconclusive are left out. The source made the active and inactive calls. Calls follow the shape of the dose curve; as a rule, active = well fitted inhibition curve with a large enough effect; inconclusive = small, poorly fitted or top-dose-only effect; inactive = flat fitted curve, though single readings scatter.
endpoint: max response

# example entries with known answers
N#CC(=C1Nc2ccccc2S1)c1ccnc(OCc2ccc(CN3CCOCC3)cc2)n1: 4.11% (inactive)
CCCCCCOC(=O)N=C(N)c1ccc(NCc2nc3cc(C(=O)N(CCC(=O)OCC)c4ccccn4)ccc3n2C)cc1: -14.3% (inactive)
C[C@H]1COC2=C1C(=O)C(=O)c1c2ccc2c1CCCC2(C)C: -3.27% (inactive)

The compound `CCN1C[C@H](C)n2c(c(O)c3c(=O)n(Cc4ccc(F)c(Cl)c4)nc(C(=O)NC)c32)C1=O` showed max response equal to -6.85% (inactive)

The compound `CCCCC[C@H](O)C=C[C@H]1[C@H](O)CC(=O)[C@H]1CCCCCCC(=O)O` showed max response equal to -0.21% (inactive)

The compound `O=C(c1ccc(C=Cc2n[nH]c3ccccc23)cc1)N1CCNCC1` showed max response equal to -12.3% (inactive)

The compound `COc1cc(CNC(=O)CCCCC=CC(C)C)ccc1O` showed max response equal to -19.8% (inactive)

The compound `O=C1CCCC(=O)C1C(=O)c1ccc(C(F)(F)F)cc1[N+](=O)[O-]` showed max response equal to -12.8% (inactive)

The compound `CC(C)(CO)[C@@H](O)C(=O)NCCC(=O)O` showed max response equal to 0.71% (inactive)

The compound `CC(C)c1onc(-c2c(Cl)cccc2Cl)c1COc1ccc(C=Cc2cccc(C(=O)O)c2)c(Cl)c1` showed max response equal to -1.7% (inactive)

The compound `Cc1ccc2c(=O)c3cccc(CC(=O)O)c3oc2c1C` showed max response equal to -6.92% (inactive)

The compound `OC[C@H]1O[C@@H](OCCc2ccc(O)cc2)[C@H](O)[C@@H](O)[C@H]1O` showed max response equal to -2.13% (inactive)

The compound `Cc1nc(C(=O)NCC(=O)O)c(O)c2ccc(Oc3ccccc3)cc12` showed max response equal to -26.8% (inactive)

The compound Cc1cc(C(C)Nc2ccccc2)c2nc(N3CCOCC3)cc(=O)n2c1 (stereo not given) showed max response equal to -10.1% (inactive)

The compound `c1ccc(-c2oc3ncnc(NC[C@@H]4CCCO4)c3c2-c2ccccc2)cc1` showed max response equal to -6.45% (inactive)

The compound `CCC[C@H](N[C@@H](C)C(=O)N1[C@@H]2CCCC[C@H]2C[C@H]1C(=O)O)C(=O)OCC` showed max response equal to 2.7% (inactive)
